Ref: patent US20220081435A1

Target: AR protein (Homo sapiens, UniProt P10275, T878A)
Construct: The percent AR protein degradation induced by these compounds at various concentrations in LNCaP cells; host or cells: LNCaP
Sequence (P10275 1-920 T878A): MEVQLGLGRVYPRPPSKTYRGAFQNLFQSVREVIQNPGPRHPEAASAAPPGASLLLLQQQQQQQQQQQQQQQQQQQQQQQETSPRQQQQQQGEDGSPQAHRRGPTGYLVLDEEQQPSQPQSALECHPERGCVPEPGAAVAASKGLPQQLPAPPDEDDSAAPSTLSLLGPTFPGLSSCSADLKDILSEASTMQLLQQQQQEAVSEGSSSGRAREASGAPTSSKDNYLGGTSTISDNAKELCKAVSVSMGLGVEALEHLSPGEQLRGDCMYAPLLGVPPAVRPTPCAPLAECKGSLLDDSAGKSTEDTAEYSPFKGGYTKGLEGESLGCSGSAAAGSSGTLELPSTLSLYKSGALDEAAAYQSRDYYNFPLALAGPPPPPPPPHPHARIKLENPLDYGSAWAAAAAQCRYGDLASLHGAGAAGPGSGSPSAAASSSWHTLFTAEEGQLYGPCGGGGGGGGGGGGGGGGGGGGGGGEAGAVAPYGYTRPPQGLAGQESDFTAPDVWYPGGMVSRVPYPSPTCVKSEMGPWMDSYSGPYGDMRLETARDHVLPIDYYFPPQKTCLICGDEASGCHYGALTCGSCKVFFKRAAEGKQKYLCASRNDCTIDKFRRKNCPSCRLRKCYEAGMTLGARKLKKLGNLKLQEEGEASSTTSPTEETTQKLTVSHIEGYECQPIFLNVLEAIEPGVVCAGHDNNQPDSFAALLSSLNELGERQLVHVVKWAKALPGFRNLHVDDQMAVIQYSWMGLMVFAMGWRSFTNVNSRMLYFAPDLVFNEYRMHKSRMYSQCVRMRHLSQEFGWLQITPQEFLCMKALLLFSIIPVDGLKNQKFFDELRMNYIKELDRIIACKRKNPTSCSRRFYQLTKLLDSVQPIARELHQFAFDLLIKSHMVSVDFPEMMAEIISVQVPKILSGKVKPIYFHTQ
Assay: AR protein degradation in LNCaP cells (Western blotting)
Type: cell-based
Conditions: 0.1 μM, treatment time 6 h, average of three independent experiments
readoutName: % AR protein degradation in LNCaP Cells (%)
Kindly provide the numeric value in % only, without the unit symbol.

{"columns": ["compound", "assayTarget", "readoutName", "observedResult"],
 "data": [
  ["Cc1cc([C@H](C(=O)N2C[C@H](O)C[C@H]2C(=O)N[C@@H](CC(=O)N2CCC(N3CCC(C#Cc4ccc(C(=O)N[C@H]5C(C)(C)[C@H](Oc6ccc(C#N)c(Cl)c6)C5(C)C)cc4)CC3)CC2)c2ccc(-c3scnc3C)cc2)C(C)C)on1 [Compound 32]", "AR protein (Homo sapiens, UniProt P10275, T878A)", "% AR protein degradation in LNCaP Cells", 98]
]}

Query: Request the reported % AR protein degradation in LNCaP Cells associated with Cc1ncsc1-c1ccc([C@H](C)NC(=O)C2C[C@@H](O)CN2C(=O)[C@@H](NC(=O)N2CCN(c3ccc(C#Cc4ccc(N5C(=S)N(c6ccc(C#N)c(C(F)(F)F)c6)C(=O)C5(C)C)cc4)cn3)CC2)C(C)(C)C)cc1 (some centres unmarked) [Compound 25]
Response: 0

Query: Requested field: % AR protein degradation in LNCaP Cells. Item: Cc1cc([C@H](C(=O)N2C[C@H](O)C[C@H]2C(=O)N[C@@H](CC(=O)N2CCN(c3ccc(C#Cc4ccc(C(=O)N[C@H]5C(C)(C)[C@H](Oc6ccc(C#N)c(Cl)c6)C5(C)C)cc4)cn3)CC2)c2ccc(-c3scnc3C)cc2)C(C)C)on1 [Compound 28]
Response: 72

Query: Fill blank: measured % AR protein degradation in LNCaP Cells of the compound Cc1ncsc1-c1ccc([C@H](CC(=O)N2CCC(N3CCC(C#Cc4ccc(C(=O)NC5C(C)(C)C(Oc6ccc(C#N)c(Cl)c6)C5(C)C)cc4)CC3)CC2)NC(=O)[C@@H]2C[C@@H](O)CN2C(=O)[C@@H](NC(=O)C2(F)CC2)C(C)(C)C)cc1 (some centres unmarked) [Compound 34] is ____.
Response: 99

Query: Which value of % AR protein degradation in LNCaP Cells has been reported for CC(=O)N[C@H](C(=O)N1C[C@H](O)C[C@H]1C(=O)N[C@@H](CC(=O)N1CCC(N2CCC(C#Cc3ccc(C(=O)N[C@H]4C(C)(C)[C@H](Oc5ccc(C#N)c(Cl)c5)C4(C)C)cc3)CC2)CC1)c1ccc(-c2scnc2C)cc1)C(C)(C)C [Compound 36] in the records?
Response: 77

Query: # % AR protein degradation in LNCaP Cells lookup, item Cc1ncsc1-c1ccc([C@H](CC(=O)N2CCC(N3CCC(C#Cc4ccc(C(=O)N[C@H]5C(C)(C)[C@H](Oc6ccc(C#N)c(Cl)c6)C5(C)C)cc4)CC3)CC2)NC(=O)[C@@H]2C[C@@H](O)CN2C(=O)[C@@H](NC(=O)C2(C#N)CC2)C(C)(C)C)cc1 [Compound 35]
Response: 99
